experimental-system: human mGluR7 (Homo sapiens, UniProt Q14831)
Sequence (Q14831 35-915): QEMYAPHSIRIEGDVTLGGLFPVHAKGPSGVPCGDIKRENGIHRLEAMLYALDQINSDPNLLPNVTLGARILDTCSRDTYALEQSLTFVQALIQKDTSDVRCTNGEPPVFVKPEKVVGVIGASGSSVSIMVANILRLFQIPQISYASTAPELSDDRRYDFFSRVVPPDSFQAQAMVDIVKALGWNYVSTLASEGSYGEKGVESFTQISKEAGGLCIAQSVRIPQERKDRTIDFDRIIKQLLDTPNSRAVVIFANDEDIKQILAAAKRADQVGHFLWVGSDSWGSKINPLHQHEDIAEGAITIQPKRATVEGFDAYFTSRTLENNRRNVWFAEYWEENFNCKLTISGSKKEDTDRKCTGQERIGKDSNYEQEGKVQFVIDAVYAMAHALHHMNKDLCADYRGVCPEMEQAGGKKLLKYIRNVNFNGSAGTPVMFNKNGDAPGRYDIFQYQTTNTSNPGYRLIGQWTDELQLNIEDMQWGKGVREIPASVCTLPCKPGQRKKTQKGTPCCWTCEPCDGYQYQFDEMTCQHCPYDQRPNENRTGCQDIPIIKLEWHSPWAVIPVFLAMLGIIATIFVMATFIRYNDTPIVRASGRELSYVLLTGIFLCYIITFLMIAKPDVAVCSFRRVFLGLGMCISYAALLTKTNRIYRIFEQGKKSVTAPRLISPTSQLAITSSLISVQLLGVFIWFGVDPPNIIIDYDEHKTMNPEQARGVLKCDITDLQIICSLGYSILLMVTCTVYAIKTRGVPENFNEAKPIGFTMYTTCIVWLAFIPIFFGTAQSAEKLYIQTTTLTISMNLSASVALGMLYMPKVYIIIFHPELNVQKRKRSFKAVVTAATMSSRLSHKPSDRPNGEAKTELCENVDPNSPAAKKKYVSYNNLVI
experiment-notes: mGluR7 assay: CRE-directed luciferase reporter gene assay, reduction of forskolin stimulated cAMP production
settings: stable CHO cell line expressing the CRE-luc reporter and human mGluR7 genes; decrease of forskolin stimulated luminescence; 10-point concentration-response, duplicate wells
pEC50: −log10 of the molar value. Counter-ions that a name gives are not always drawn.
endpoint-name: pEC50

[
  {
    "compound": "CN[C@H]1c2ccccc2C[C@@H]1NC(=O)[C@@H](C)c1ccc(F)cc1",
    "pEC50": 7.35
  },
  {
    "compound": "N[C@H]1c2ccccc2C[C@@H]1NC(=O)C(c1ccc(F)cc1F)N1CC(F)C1 (stereo partly drawn) [Example 105]",
    "pEC50": 6.84
  },
  {
    "compound": "CC(C)(C)OC(=O)N[C@H]1c2ccccc2C[C@@H]1NC(=O)C1(c2ccccc2)CNC(=O)C1 (stereo partly drawn)",
    "pEC50": 7.38
  },
  {
    "compound": "N[C@H]1c2ccccc2C[C@@H]1NC(=O)C(c1ccc(F)cc1F)N1CC(F)C1 (single isomer, unassigned) [Example 106]",
    "pEC50": 7.09
  }
]

1: CCOC1c2ccccc2CC1NC(=O)[C@@H](C)c1ccc(F)cc1 (stereo in doubt) [Example 31]
2: CC[C@H](C(=O)N[C@@H]1Cc2ccccc2[C@H]1NC(=O)OC(C)(C)C)c1ccc(F)cc1
3: C[C@H](C(=O)NC1Cc2ccccc2C1O)c1ccccc1 (single isomer, unassigned) [Example 5]
Request: Order the items by recorded pEC50; the first position goes to the largest value. Reply with the item labels sorted in the order that was asked for.
Response: 1, 2, 3

A: CCC(C(=O)N[C@@H]1Cc2ccccc2[C@H]1N)c1ccc(F)cc1F (stereo partly drawn) [Example 17, hydrochloride]
B: COC1c2ccccc2CC1NC(=O)[C@@H](NC(=O)c1cnn(C)c1)c1ccc(F)cc1 (stereo in doubt)
Request: Choose between A and B : whose measured pEC50 value is numerically larger? Please reply using the label of the selected record.
Response: B
(B: 8.40, A: 6.71)
